Molecular target: UniProt:Q92731
Sequence (Q92731 264-498 limits assumed): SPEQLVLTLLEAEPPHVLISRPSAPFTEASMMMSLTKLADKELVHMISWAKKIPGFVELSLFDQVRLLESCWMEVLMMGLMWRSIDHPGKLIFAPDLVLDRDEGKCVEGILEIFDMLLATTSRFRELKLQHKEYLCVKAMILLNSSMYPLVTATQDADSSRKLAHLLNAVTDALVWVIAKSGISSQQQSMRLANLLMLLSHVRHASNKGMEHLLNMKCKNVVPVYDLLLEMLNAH
Test: Competitive fluorescence polarization binding assay, ERβ
Details: IC50 estradiol/IC50 compound × 100, estradiol = 100%
METRIC: RBA ERβ (%)
Kindly answer with a numeric value in %, unit omitted.

Solved cases below.
Missing value: RBA ERβ, UniProt:Q92731, entry COc1ccc(N(CC(F)(F)F)S(=O)(=O)C2CC3OC2C(c2ccc(O)cc2)=C3c2ccc(NC(=O)C=C(C)C)cc2)cc1 (stereo not drawn) [Compound 29f] . Fill in?
1.64

Then what about the compound CC(C)CC(=O)Nc1ccc(C2=C(c3ccc(O)cc3)[C@H]3O[C@@H]2CC3S(=O)(=O)N(CC(F)(F)F)c2ccc(O)cc2)cc1 (mixture of isomers) [Compound 29k] ?
1.45

// query: C=CC(=O)Nc1ccc(C2=C(c3ccc(O)cc3)C3OC2CC3S(=O)(=O)Oc2ccccc2)cc1 (stereo not drawn) [Compound 28a]
1.19

Likewise for CC(C)=CC(=O)Nc1ccc(C2=C(c3ccc(O)cc3)C3CC(S(=O)(=O)N(CC(F)(F)F)c4ccc(C)cc4)C2O3)cc1 (stereo not drawn) [Compound 29d] ?
1.37

***
Query the reported RBA ERβ for UniProt:Q92731; item: CC(C)=CC(=O)Nc1ccc(C2=C(c3ccc(O)cc3)C3CC(S(=O)(=O)N(CC(F)(F)F)c4ccc(O)cc4)C2O3)cc1 (stereo not drawn) [29c′]
2.05

Query CC(C)=CC(=O)Nc1ccc(OS(=O)(=O)C2CC3OC2C(c2ccc(O)cc2)=C3c2ccc(O)cc2)cc1 (stereo not drawn) [Compound 26c] next
1.31

* * *

System: MCF-7 cells
Assay: Cell viability assay
Assay type: cell-based, human
Conditions: Homo sapiens, MCF7, 72 h, read-out: MCF-7 IC50
Binarize IC50 at 700 nM; below is True, at or above is False.

Solved entries (count: 3):
Please determine if C=CC(=O)Nc1ccc(C2=C(c3ccc(O)cc3)C3OC2CC3S(=O)(=O)N(CC(F)(F)F)c2ccc(O)cc2)cc1 (stereo not shown) [Compound 29a] is below 700 nM in terms of IC50.
True

What do you get for C=CC(=O)Nc1ccc(C2=C(c3ccc(O)cc3)C3OC2CC3S(=O)(=O)Oc2ccccc2)cc1 (stereo not shown) [Compound 28a] ?
False

// query: CC(C)=CC(=O)Nc1ccc(C2=C(c3ccc(O)cc3)C3OC2CC3S(=O)(=O)N(CC(F)(F)F)c2ccc(O)cc2)cc1 (stereo not shown) [Compound 29c]
True

---
# strict comparison: is reported IC50 < 700 nM? input = CC(C)=CC(=O)Nc1ccc(C2=C(c3ccc(O)cc3)C3OC2CC3S(=O)(=O)Oc2ccccc2)cc1 (stereo not shown) [Compound 28c]
True

Thanks! And CCN(c1ccc(O)cc1)S(=O)(=O)C1CC2OC1C(c1ccc(O)cc1)=C2c1ccc(NC(=O)C=C(C)C)cc1 (stereo not shown) [Compound 29i] ?
True

Another molecule: O=C(CCl)Nc1ccc(C2=C(c3ccc(O)cc3)C3CC(S(=O)(=O)Oc4ccccc4)C2O3)cc1 (stereo not shown) [Compound 28d]
True

Check Nc1ccc(C2=C(c3ccc(O)cc3)C3OC2CC3S(=O)(=O)N(CC(F)(F)F)c2ccc(O)cc2)cc1 (stereo not shown) [Compound 29l] too.
False

* * *

Assay: PK studies in mice
Assay type: in vivo, BALB/c female mice
Conditions: female, BALB/c, mouse, plasma, ip, 4 mg/kg
METRIC: AUC (ng·h/mL)
Your answer is read as ng·h/mL, so omit the unit and give the number.

Quick one: AUC for CC(C)=CC(=O)Nc1ccc(C2=C(c3ccc(O)cc3)C3OC2CC3S(=O)(=O)N(CC(F)(F)F)c2ccc(O)cc2)cc1 (stereo not shown) [Compound 29c] ?
960
